- experimental system: NEK1 (Homo sapiens)
- Construct: purchased in-house DSF panel (SGC Frankfurt)
- Sequence (Q96PY6 1-328): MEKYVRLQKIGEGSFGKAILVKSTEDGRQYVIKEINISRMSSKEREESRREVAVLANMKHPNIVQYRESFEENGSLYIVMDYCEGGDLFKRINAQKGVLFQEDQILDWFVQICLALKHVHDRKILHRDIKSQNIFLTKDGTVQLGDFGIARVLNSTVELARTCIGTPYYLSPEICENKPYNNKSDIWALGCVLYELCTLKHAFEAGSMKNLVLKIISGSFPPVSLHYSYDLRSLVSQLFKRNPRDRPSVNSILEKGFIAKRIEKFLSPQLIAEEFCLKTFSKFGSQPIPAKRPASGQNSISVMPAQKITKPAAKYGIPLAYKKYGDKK
- measurement notes: DSF
- Assay type: binding
Record form. Attribute: ΔTm NEK1. Fill in for each entry.
# value in °C; strip the unit string

query: Fill in ΔTm NEK1 for record COC(=O)c1cc(Nc2ccnc(NCCOCCNC(=O)OC(C)(C)C)n2)[nH]n1 [21d]
result: 0.1

query: Fill in ΔTm NEK1 for record CC(C)OC(=O)c1cc(Nc2ccnc(NCc3ccc(NC(=O)OC(C)(C)C)cc3)n2)n[nH]1 [42d]
result: 0.2

query: Fill in ΔTm NEK1 for record CC(C)(C)OC(=O)Nc1ccc(CNc2nccc(Nc3cc(C(=O)OC(C)(C)C)[nH]n3)n2)cc1 [43d]
result: 0.1

query: Fill in ΔTm NEK1 for record N#CCc1ccc(Nc2nccc(Nc3cc(C4CC4)[nH]n3)n2)cc1 [compound 1, reference compound]
result: 1.1

query: Fill in ΔTm NEK1 for record COC(=O)c1cc(Nc2ccnc(NCc3ccc(NC(=O)OC(C)(C)C)cc3)n2)[nH]n1 [21i]
result: 0.4

###

- experimental system: CLK3 (Homo sapiens, UniProt P49761)
- Construct: purchased in-house DSF panel (SGC Frankfurt)
- Sequence (P49761 127-484): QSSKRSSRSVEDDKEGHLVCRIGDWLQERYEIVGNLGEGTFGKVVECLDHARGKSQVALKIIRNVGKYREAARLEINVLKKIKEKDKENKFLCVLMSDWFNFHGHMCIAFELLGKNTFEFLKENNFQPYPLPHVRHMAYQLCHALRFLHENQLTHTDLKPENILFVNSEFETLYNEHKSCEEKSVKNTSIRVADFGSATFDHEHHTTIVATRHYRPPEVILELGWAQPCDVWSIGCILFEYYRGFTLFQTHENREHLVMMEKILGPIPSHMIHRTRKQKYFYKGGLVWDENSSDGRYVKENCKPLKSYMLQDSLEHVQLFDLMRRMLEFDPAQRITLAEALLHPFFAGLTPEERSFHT
- measurement notes: DSF
- Type: binding
Returns: string. Value is 1 if measured ΔTm CLK3 is below 0.4 °C, and 0 if it is greater than or equal to it.

query: Item N#CCc1ccc(Nc2nccc(Nc3cc(C4CC4)[nH]n3)n2)cc1 [compound 1, reference compound] : ΔTm CLK3 beneath 0.4 °C, strictly?
result: 0

query: Item CC(C)OC(=O)c1cc(Nc2ccnc(NCc3ccc(NC(=O)OC(C)(C)C)cc3)n2)n[nH]1 [42d] : ΔTm CLK3 beneath 0.4 °C, strictly?
result: 1

query: Item CC(C)(C)OC(=O)Nc1ccc(CNc2nccc(Nc3cc(C(=O)OC(C)(C)C)[nH]n3)n2)cc1 [43d] : ΔTm CLK3 beneath 0.4 °C, strictly?
result: 1

query: Item COC(=O)c1cc(Nc2ccnc(NCCOCCNC(=O)OC(C)(C)C)n2)[nH]n1 [21d] : ΔTm CLK3 beneath 0.4 °C, strictly?
result: 0

###

- experimental system: DYRK2 (Homo sapiens, UniProt Q92630)
- Construct: purchased in-house DSF panel (SGC Frankfurt)
- Sequence (Q92630 1-601): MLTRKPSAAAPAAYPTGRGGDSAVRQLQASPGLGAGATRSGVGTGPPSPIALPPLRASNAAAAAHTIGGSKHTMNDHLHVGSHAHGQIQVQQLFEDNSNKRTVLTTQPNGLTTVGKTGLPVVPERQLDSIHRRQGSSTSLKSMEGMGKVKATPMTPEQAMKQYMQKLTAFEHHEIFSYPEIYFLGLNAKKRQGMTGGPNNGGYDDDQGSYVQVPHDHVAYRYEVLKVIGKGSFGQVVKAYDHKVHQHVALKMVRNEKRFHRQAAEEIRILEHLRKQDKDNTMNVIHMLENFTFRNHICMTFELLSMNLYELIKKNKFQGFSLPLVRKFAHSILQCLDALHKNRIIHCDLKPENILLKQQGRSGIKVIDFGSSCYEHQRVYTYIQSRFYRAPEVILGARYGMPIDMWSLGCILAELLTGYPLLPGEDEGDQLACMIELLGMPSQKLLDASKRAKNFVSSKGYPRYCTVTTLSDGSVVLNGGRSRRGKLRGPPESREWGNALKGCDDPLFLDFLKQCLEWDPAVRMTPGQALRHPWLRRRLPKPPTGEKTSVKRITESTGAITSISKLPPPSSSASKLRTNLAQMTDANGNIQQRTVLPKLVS
- measurement notes: DSF
- Format: binding
Record form. Attribute: ΔTm DYRK2. Fill in for each entry.
# value in °C; strip the unit string

query: Fill in ΔTm DYRK2 for record N#CCc1ccc(Nc2nccc(Nc3cc(C4CC4)[nH]n3)n2)cc1 [compound 1, reference compound]
result: 11.0

query: Fill in ΔTm DYRK2 for record CC(C)(C)OC(=O)Nc1ccc(CNc2nccc(Nc3cc(C(=O)OC(C)(C)C)[nH]n3)n2)cc1 [43d]
result: 0.8

query: Fill in ΔTm DYRK2 for record CC(C)OC(=O)c1cc(Nc2ccnc(NCc3ccc(NC(=O)OC(C)(C)C)cc3)n2)n[nH]1 [42d]
result: 0.5

query: Fill in ΔTm DYRK2 for record COC(=O)c1cc(Nc2ccnc(NCCOCCNC(=O)OC(C)(C)C)n2)[nH]n1 [21d]
result: 2.1

query: Fill in ΔTm DYRK2 for record COC(=O)c1cc(Nc2ccnc(NCc3ccc(NC(=O)OC(C)(C)C)cc3)n2)[nH]n1 [21i]
result: 1.1

Cited source for all entries: paper PMC9736855
